test system: DNA fragmentation in A549 cells; experiment: DNA Fragmentation Assay (Cell Death Detection ELISA); assay type: cell-based; details: Homo sapiens, A549, 24 h, read-out: % Increase over Background
Property Name: activation at 1 µM (%)
Note: unit % is implicit; provide only the numeric part.

Fill in: activation at 1 µM of Cc1c(Cl)cnc(NC(c2ccc(Cl)cc2Cl)c2ccc3cccnc3c2O)c1F (centres unmarked) is ___
130

Please look up its activation at 1 µM: Cc1cc(Cl)cnc1NC(c1cc(Cl)ccc1Cl)c1ccc2cccnc2c1O (centres unmarked)
182

Query: activation at 1 µM; subject: Oc1c(C(Nc2ccc(C(F)(F)F)cn2)c2cccc(C(F)(F)F)c2)ccc2cccnc12 (centres unmarked)
525

Request the reported activation at 1 µM associated with CCc1cc(Cl)cnc1NC(c1ccc(Cl)cc1)c1ccc2cccnc2c1O (centres unmarked)
702

Can you share its activation at 1 µM? I mean this molecule: Cc1cc(Cl)cnc1NC(c1ccc(Cl)cc1Cl)c1ccc2cccnc2c1O (centres unmarked)
630

---

assay: Stability on incubation with human liver microsomes (HLM); assay type: in vitro ADME; details: percentage left after incubation with human liver microsomes for 30 minutes
Property Name: HLM % Remaining@ 30 Min

Need HLM % Remaining@ 30 Min of Cc1cc(Cl)cnc1NC(c1ccc2cccnc2c1O)c1c(F)c(F)cc(F)c1F (stereo not shown) [AD4-13059] , thanks.
92%

Look up HLM % Remaining@ 30 Min for this compound: Oc1c(C(Nc2ccc(Cl)cn2)c2ccc(Cl)c(C(F)(F)F)c2)ccc2cccnc12 (stereo not shown) [AD4-13067]
89%

Tell me the measured HLM % Remaining@ 30 Min of Cc1cccc(NC(c2ccc3cccnc3c2O)c2c(F)c(F)cc(F)c2F)n1 (stereo not shown) [AD4-12918] , please.
51%

What value of HLM % Remaining@ 30 Min has been recorded for this entry: Oc1c(C(Nc2ccc(F)cn2)c2cc(Cl)cc(Cl)c2Cl)ccc2cccnc12 (stereo not shown) [AD4-13111]
92%

---

biological target: EGFR (Homo sapiens, UniProt P00533); construct: endogenous in cells; host or cells: A431 cells (ATCC CRL-1555); experiment: EGFR in-cell Western (ICW) screening protocol; format: cell-based; parameters: unit not given here; conditions: initial screen
Sequence (P00533 25-1210): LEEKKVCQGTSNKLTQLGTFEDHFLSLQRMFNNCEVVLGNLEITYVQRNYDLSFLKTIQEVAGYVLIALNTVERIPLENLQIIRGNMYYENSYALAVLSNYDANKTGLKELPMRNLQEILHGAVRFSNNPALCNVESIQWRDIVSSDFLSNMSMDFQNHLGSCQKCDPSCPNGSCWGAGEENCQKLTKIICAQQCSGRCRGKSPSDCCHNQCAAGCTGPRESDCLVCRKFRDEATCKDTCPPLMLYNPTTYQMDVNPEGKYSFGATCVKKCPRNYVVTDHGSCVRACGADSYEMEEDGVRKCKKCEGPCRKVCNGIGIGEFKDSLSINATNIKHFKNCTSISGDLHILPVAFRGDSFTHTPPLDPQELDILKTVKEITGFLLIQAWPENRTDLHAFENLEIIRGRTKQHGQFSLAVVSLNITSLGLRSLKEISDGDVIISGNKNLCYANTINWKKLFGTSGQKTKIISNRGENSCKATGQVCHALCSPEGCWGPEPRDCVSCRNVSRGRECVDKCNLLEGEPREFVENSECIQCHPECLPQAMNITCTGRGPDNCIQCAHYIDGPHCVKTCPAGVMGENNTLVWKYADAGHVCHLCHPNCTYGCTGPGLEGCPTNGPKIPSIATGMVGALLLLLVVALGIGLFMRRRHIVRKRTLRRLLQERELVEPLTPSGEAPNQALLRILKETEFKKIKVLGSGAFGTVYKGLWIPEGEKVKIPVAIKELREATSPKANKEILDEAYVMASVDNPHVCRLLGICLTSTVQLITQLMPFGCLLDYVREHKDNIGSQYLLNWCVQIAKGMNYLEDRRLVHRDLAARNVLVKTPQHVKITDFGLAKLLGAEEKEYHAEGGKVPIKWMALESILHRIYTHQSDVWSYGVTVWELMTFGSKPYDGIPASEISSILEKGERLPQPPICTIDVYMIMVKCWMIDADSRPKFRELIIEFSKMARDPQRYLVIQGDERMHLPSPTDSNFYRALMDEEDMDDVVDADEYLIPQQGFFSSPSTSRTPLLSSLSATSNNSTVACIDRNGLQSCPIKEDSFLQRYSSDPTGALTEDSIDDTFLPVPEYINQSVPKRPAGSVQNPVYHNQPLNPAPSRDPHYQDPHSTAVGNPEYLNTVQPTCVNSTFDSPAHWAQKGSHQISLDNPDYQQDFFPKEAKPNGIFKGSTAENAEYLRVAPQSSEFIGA
Classification by ICW Screen follows these ranges: 1: < 30; 2: ≥ 30 and < 40; 3: ≥ 40

Kindly state the category for this molecule: Cc1ccnc(NC(c2ccc(O)cc2)c2ccc3ccc(C)nc3c2O)c1 (stereo not drawn)
3

Entry Cc1cccc(NC(c2ccc(Cl)cc2)c2ccc3cccnc3c2O)n1 (stereo not drawn) belongs to which category?
1

Which bin should I file O=[N+]([O-])c1ccccc1C(Nc1ccccn1)c1ccc2cccnc2c1O (stereo not drawn) under?
3

In plain terms, what class is Oc1c(C(Nc2cccc(F)c2)c2ccccn2)ccc2cccnc12 (stereo not drawn) ?
3

Could you tell me which band OCCN1CCN(C(c2cccs2)c2ccc3cccnc3c2O)CC1 (stereo not drawn) belongs to?
1

For C=CCOc1cccc(C(Nc2ccccn2)c2ccc3cccnc3c2O)c1 (stereo not drawn) , which ICW Screen bin applies?
2

Quick check: band for Oc1c(C(Nc2ccccn2)c2ccccc2Cl)ccc2cccnc12 (stereo not drawn)
1

Sort into band: CCCC(=O)NC(c1ccc(O)c(OCC)c1)c1cc([N+](=O)[O-])c2cccnc2c1O (stereo not drawn)
3

For Cc1ccc2ccc(C(Nc3ccccn3)c3cccnc3)c(O)c2n1 (stereo not drawn) , which ICW Screen bin applies?
1

Pick a category. Item: CC(=O)Nc1ccc(NC(c2ccccn2)c2ccc3cccnc3c2O)cc1 (stereo not drawn)
1

Which ICW Screen band matches CCOc1ccc(C(Nc2ccccn2)c2ccc3ccc(C)nc3c2O)cc1OC (stereo not drawn) ?
1

Category of CCCC(=O)NC(c1ccc(OC)c(OC)c1)c1cc(Cl)c2cccnc2c1O (stereo not drawn) , please.
1

Which class holds CCOc1ccc(NC(c2ccccn2)c2ccc3cccnc3c2O)cc1 (stereo not drawn) [compound 1073] ?
3

Band for the recorded ICW Screen of COc1ccccc1NC(c1cccnc1)c1ccc2cccnc2c1O (stereo not drawn) ?
3

Hello team, could you let me know which band the following molecule falls into: Cc1ccccc1C(Nc1ccccn1)c1ccc2cccnc2c1O (stereo not drawn)
2

In plain terms, what class is CCN1CCN(C(c2ccc(C(F)(F)F)cc2)c2ccc3cccnc3c2O)CC1 (stereo not drawn) ?
3

Exercise: read the entry Oc1c(C(Nc2ccccn2)c2ccccc2F)ccc2cccnc12 (stereo not drawn) and state which class it falls under.
3

Lab log: COc1ccc(C(Nc2ccccn2)c2ccc3ccc(C)nc3c2O)cc1OC (stereo not drawn) — assign ICW Screen category
2

// return the class label for Cc1cccc(NC(c2ccc3c(c2)OCO3)c2ccc3cccnc3c2O)n1 (stereo not drawn) [compound 10487]
2

State the class of the molecule shown: Oc1c(C(Nc2ccccn2)c2cccc(Cl)c2)cc(Cl)c2cccnc12 (stereo not drawn)
1

---

tested on: H1975 cells; assay: H1975 Cell Proliferation Assay (MTT); type: cell-based; conditions: Homo sapiens, NCI-H1975, 72 h, read-out: IC50 Value (μM) H1975 Cells
I'd appreciate it if you could supply IC50 values for the items below.
Numeric only. Scale: µM

// IC50 lookup, key: Oc1c(C(Nc2cc(Cl)c(Cl)cn2)c2cccc(Cl)c2Cl)ccc2cccnc12 (stereo not shown)
0.15

What does the record list as IC50 for Cc1cc(NC(c2ccc(Cl)cc2Cl)c2ccc3cccnc3c2O)ncc1Cl (stereo not shown) ?
0.36

# get_value(readout='IC50', item= Cc1c(Cl)cnc(NC(c2ccc(Cl)cc2Cl)c2ccc3cccnc3c2O)c1F (stereo not shown) )
0.16

Give its IC50 value. Item: Cc1cc(NC(c2cccc(Cl)c2Cl)c2ccc3cccnc3c2O)ncc1Cl (stereo not shown)
0.19

Please give the measured IC50 for this compound: Oc1c(C(Nc2ncc(Cl)cc2F)c2ccc(Cl)cc2Cl)ccc2cccnc12 (stereo not shown)
0.13

Which measured IC50 value corresponds to Cc1cc(Cl)cnc1NC(c1ccc(C(F)(F)F)cc1)c1ccc2cccnc2c1O (stereo not shown) ?
0.17

Entry under review: Oc1c(C(Nc2ccc(C(F)(F)F)cn2)c2ccc(Cl)c(Cl)c2)ccc2cccnc12 (stereo not shown) . Reported IC50?
0.22

# get_value(readout='IC50', item= Oc1c(C(Nc2ccc(Cl)cn2)c2cc(C(F)(F)F)ccc2Cl)ccc2cccnc12 (stereo not shown) )
0.24

May I ask what IC50 has been recorded for Cc1cc(Cl)cnc1NC(c1ccc(Cl)cc1Cl)c1ccc2cccnc2c1O (stereo not shown) ?
0.088

// query IC50 value for entry Cc1cc(NC(c2ccc(C(F)(F)F)cc2C(F)(F)F)c2ccc3cccnc3c2O)ncc1Cl (stereo not shown)
0.97

I'd like to know its IC50. The compound in question is Oc1c(C(Nc2cc(Cl)ccn2)c2ccc(C(F)(F)F)c(F)c2)ccc2cccnc12 (stereo not shown)
0.17

GET /values?readout=IC50&item= Oc1c(C(Nc2cc(Cl)c(Cl)cn2)c2ccc(Cl)cc2Cl)ccc2cccnc12 (stereo not shown)
0.19

Please look up its IC50: Cc1nc(NC(c2ccc(Cl)cc2Cl)c2ccc3cccnc3c2O)c(Cl)cc1Cl (stereo not shown)
0.36

Data request, read-out IC50, for Oc1c(C(Nc2ncc(Cl)cc2F)c2ccc(Cl)c(Cl)c2)ccc2cccnc12 (stereo not shown)
0.45

State the recorded IC50 for this entry: Oc1c(C(Nc2ccc(C(F)(F)F)cn2)c2ccc(C(F)(F)F)cc2)ccc2cccnc12 (stereo not shown)
0.26

Item Oc1c(C(Nc2ncc(F)cc2F)c2c(Cl)cccc2Cl)ccc2cccnc12 (stereo not shown) has what recorded IC50?
0.3

---

Target: EGFR (Homo sapiens, UniProt P00533)
Construct: endogenous in cells; host or cells: A431 cells (ATCC CRL-1555)
Experiment: EGFR in-cell Western (ICW) screening protocol
Type: cell-based
Parameters: unit not given here
Settings: re-test
Experimental: The following example describes general EGFR in-cell Western (ICW) screening protocol. Two cell plates were prepared for each compound plate. Serum Starvation: The cells were serum starved prior to compound addition. […] The cell plates were incubated at 37° C./5% CO2 for 2 hours. Prepared compound plates were stored at RT prior to use and at 4° C. long term. […] Data Analysis: The % of Maximum and % Inhibition values were calculated as follows. […]
Property Name: ICW Re-Test
Give the figure only, with no unit attached.

Which ICW Re-Test value belongs to COc1ccc(C(Nc2cc(C)ccn2)c2ccc3cccnc3c2O)cc1C (stereo not drawn) ?
33.76

May I ask what ICW Re-Test has been recorded for Oc1c(C(Nc2cccnc2)c2ccc(C(F)(F)F)cc2)ccc2cccnc12 (stereo not drawn) ?
95.43

What does the data say about its ICW Re-Test? Entry: CCN(CC)c1ccc(C(Nc2ccccn2)c2ccc3cccnc3c2O)cc1 (stereo not drawn)
92.26

---

What pIC50 was measured for each of the following?
test system: MDBK line; assay: MTT Cell Proliferation Assay, MDBK line; type: cell-based, bovine; details: Bos taurus, MDBK, 72 h; second value of A431/MDBK pair; read-out: MTT-72 h MDBK
For clarity, pIC50 is expressed as the negative log10 of concentration in mol/L.

Look up pIC50 for this compound: Oc1c(C(Nc2ccccn2)c2cccc(Cl)c2)cc(Cl)c2cccnc12 (stereo not shown)
5.22

Would you kindly share the measured pIC50 for OCCN1CCN(C(c2cccs2)c2ccc3cccnc3c2O)CC1 (stereo not shown) ?
5.23

# input compound: CCOc1ccc(C(Nc2ccccn2)c2ccc3cccnc3c2O)cc1O (stereo not shown) ; wanted: its pIC50
5.19

For the compound shown here, Oc1c(C(Nc2ccccn2)c2ccc(OC(F)F)cc2)ccc2cccnc12 (stereo not shown) , give the reported pIC50.
6.02

pIC50 for COc1ccc(C(Nc2cc(C)ccn2)c2ccc3cccnc3c2O)cc1C (stereo not shown) ?
5.43

Fill blank: measured pIC50 of the compound Cc1cccc(NC(c2cccnc2)c2ccc3cccnc3c2O)n1 (stereo not shown) is ____.
4.45

Reported pIC50 for COc1ccc(C(Nc2cc(C)ccn2)c2ccc3cccnc3c2O)c(OC)c1OC (stereo not shown) : what is it?
5.22
